Cited source: paper PMC12259270

- measured.target: T1, FGF13 (protein used in surface plasmon resonance) (UniProt Q92913-2 1-192)
- T1 construct: Fibroblast growth factor 13; also called fibroblast growth factor 13
- T1 sequence (looked up): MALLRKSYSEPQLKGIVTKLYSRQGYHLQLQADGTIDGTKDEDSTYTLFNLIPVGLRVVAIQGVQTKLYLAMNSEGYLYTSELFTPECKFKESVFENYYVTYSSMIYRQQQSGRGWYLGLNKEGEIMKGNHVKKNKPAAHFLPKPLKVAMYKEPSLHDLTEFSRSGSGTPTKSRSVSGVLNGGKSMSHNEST
- experimental.details: SPR; cell-free; FGF13 with Nav1.7 CTD, no compound
- condition.summary: both partners purified
result.type: Kd (nM)
Numeric answer only, unit nM assumed.

Incoming: May I ask what Kd has been recorded for QEDVSATVIQRAYRRYRLRQNVK (domain or fragment, synthetic peptide from supplementary SPR methods (stated as residues 1876-1899, 23 aa); used unconjugated as analyte over immobilized FGF13, and biotinylated (biotin position not stated) when …) [Nav1.7 CTD (fragment used in surface plasmon resonance)] ?
Outgoing: 75
